Assign switch fluorescence ratio to each entry below.
System: ATP;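 also: ATP exposure 15 min at 22 °C before imaging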
protocolSummary: switch fluorescence ratio, 500 uM ATP over buffer (Cy3 cluster intensity, sum of 5 cycles each) (fold (ratio)); higher = stronger signal-on switching upon ATP binding; sequences stand for … in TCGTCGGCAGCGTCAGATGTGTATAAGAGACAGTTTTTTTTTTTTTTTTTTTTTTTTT…TC
condition: aptamer strand: ATP DNA aptamer (quencher-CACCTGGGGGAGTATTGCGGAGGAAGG + anchor), 100 nM annealed; ATP concentration: 500 uM

Sample records with switch fluorescence ratio:
sequenceentry=ATATGGGGGC endpointlabel="switch fluorescence ratio" measured=0.972
sequenceentry=TAGTTTTGTA endpointlabel="switch fluorescence ratio" measured=0.971
sequenceentry=AATCGGGTCA endpointlabel="switch fluorescence ratio" measured=0.985

Each sequence below has a reported value. Please supply its switch fluorescence ratio.
1. TTGATTGTGG
2. AGGTTCAACG
3. AGTGGAGTCA
4. CACACGTTAT
5. GCTACTTTTG
6. TCCTTTTTTA
7. ACTGCGTAAA
8. TGTTGCATAA

[1.03, 1.01, 1.02, 1.19, 0.998, 1.01, 0.991, 0.968]

Where these numbers come from: the supplement of paper PMC10126150
